system: EKVX NSCLC; assay: NCI tumour cell line growth inhibition, 48 h; in the data active = GI50 below about 0.43 µM; inactive = the rest
One label from this list, please: active, inactive

O=C1c2ccccc2-c2c1c1ccc([N+](=O)[O-])cc1c(=O)n2CCCBr
inactive

Test call for this molecule, please: COC(=O)Cn1c2c(c3c(O)cccc31)C(=O)c1ccccc1-2
inactive

I would be grateful if you could indicate the recorded call for Cc1ccc(C2=NOC3=c4ccccc4=CSC3=C2c2ccc([N+](=O)[O-])cc2)cc1 .
inactive

GET /call?item= C=CC(=O)N(C)[C@H]1C[C@H]2OC(C)(C1OC)n1c3ccccc3c3c4c(c5c6ccccc6n2c5c31)C(=O)NC4 (stereo not given in full) returns the recorded outcome of this test.
active

Test call for this molecule, please: CCCn1c(C)nc2c1C(=O)c1ccccc1C2=O
inactive
